quantity: melting point

>>> datavalue("COC12OC1(c1ccc(C(F)(F)F)c3c1S(=O)(=O)CCC3)C=NN(C)C2=O (stereo not shown)")
"132 to 134 °C"
>>> datavalue("COC12OC1(c1cccc3c1CCCS3(=O)=O)C=NN(C)C2=O (stereo not shown)")
"179 to 181 °C"
>>> datavalue("COC12OC1(c1ccc(C(F)(F)F)cc1S(C)(=O)=O)C=NN(C)C2=O (stereo not shown)")
"128 °C"
>>> datavalue("COC12OC1(c1ccc(C(F)(F)F)c3c1CCCO3)C=NN(C)C2=O (stereo not shown)")
"153 to 155 °C"
>>> datavalue("COC12OC1(c1ccc(C(F)(F)F)c3c1CCS3(=O)=O)C=NN(C)C2=O (stereo not shown)")
"172 to 177 °C"
>>> datavalue("COC12OC1(c1ccc(C(F)(F)F)c(N=S3(=O)CCCCC3)c1Cl)C=NN(C)C2=O (stereo not shown)")
"158 to 161 °C"
>>> datavalue("COC12OC1(c1cc(F)c(C(F)(F)F)c3c1CCCS3(=O)=O)C=NN(C)C2=O (stereo not shown)")
"205 to 206 °C"
>>> datavalue("COC12OC1(c1ccc(C(F)(F)F)cc1S(C)(=O)=O)C=NN(C1CCCCO1)C2=O (stereo not shown)")
"65 to 66 °C"
>>> datavalue("COC12OC1(c1cc3c(cc1S(C)(=O)=O)CCC3)C=NN(C)C2=O (stereo not shown)")
"150 to 153 °C"
>>> datavalue("CN1N=CC2(c3ccc(C(F)(F)F)c4c3CCCS4(=O)=O)OC2(OCc2ccn(CC(F)(F)F)n2)C1=O (stereo not shown)")
"112 to 117 °C"
